Readings of pIC50 for the listed compounds
# system_tested: canine TRPM8 (Canis lupus familiaris, UniProt Q1A7N1)
# Sequence (Q1A7N1 1-1104): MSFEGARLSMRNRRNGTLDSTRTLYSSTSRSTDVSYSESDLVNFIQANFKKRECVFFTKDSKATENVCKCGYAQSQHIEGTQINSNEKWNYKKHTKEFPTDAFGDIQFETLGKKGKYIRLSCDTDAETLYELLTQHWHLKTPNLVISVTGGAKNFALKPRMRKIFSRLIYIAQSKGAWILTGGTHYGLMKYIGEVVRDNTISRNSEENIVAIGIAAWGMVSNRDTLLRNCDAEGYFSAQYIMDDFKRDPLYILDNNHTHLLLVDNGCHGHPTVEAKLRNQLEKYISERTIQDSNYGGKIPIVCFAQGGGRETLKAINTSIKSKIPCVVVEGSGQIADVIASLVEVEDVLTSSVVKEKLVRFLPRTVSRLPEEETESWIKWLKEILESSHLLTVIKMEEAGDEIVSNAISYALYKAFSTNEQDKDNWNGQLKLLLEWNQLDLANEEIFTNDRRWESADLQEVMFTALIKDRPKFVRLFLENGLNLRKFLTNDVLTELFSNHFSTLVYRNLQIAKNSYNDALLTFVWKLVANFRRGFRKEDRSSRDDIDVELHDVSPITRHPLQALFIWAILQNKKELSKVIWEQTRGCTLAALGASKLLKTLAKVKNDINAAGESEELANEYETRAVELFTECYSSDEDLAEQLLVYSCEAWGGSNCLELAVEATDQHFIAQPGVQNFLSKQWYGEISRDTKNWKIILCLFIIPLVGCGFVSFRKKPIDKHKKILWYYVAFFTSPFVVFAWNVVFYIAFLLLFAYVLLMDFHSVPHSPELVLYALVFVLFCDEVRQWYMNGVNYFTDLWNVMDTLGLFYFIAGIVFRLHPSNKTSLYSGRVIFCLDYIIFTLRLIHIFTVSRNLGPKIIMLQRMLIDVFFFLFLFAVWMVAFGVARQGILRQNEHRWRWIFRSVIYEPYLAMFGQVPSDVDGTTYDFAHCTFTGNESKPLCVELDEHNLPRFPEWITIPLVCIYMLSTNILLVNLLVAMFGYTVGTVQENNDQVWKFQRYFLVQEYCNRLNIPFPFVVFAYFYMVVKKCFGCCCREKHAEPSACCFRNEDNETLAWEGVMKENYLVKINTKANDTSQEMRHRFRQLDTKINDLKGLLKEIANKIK
# experiment_summary: In Vitro Canine TRPM8 Functional Assay (Ca2+ fluorescence, icilin activation)
# experimental_setup: HEK293 cells stably expressing canine TRPM8; icilin activation; Ca2+ fluorescence
Just the number, please; pIC50 means minus log10 of the concentration in mol/L.

[
  {
    "compound": "O=C(C(Nc1ccccc1F)c1ccc(-c2ccccc2)nc1)N1CCC[C@H]1c1ccccc1F (mixture of isomers) [Cpd 306]",
    "pIC50": 8.15
  },
  {
    "compound": "COc1ccc(NC(C(=O)N2CCCC2c2ccccc2Cl)c2ccc(Cl)cc2)cc1 (stereo not shown) [Cpd 136]",
    "pIC50": 6.71
  },
  {
    "compound": "CN(C)c1cccc([C@H]2CCCN2C(=O)C(Nc2ccccc2F)c2ccc(C(F)(F)F)cc2)c1 (mixture of isomers) [Cpd 348]",
    "pIC50": 7.66
  }
]

Then there is this compound:
-- ask Provide pIC50 value for the following compound: O=C(C(Nc1ccccc1F)c1ccc(Br)cc1)N1Cc2ccccc2C1 (stereo not shown) [Cpd 92]
-- reply 7.05
